Numbers sourced from patent US12576169B2.

Test system: LNCaP cells
procedureText: Internalization of 18F-labeled ligands into LNCaP cells
Assay type: cell-based, human
conditionContext: internalized activity at 1 h in % of reference [125I]XII; c = 0.5 nM; LNCaP cells (125.000 cells/well); 37° C., DMEM/F-12 add. 5% BSA; corrected for non-specific binding (10 μm PMPA); mean ± SD (n = 3)
*1 amine or outer side, *2 acyl side, *3 side chain or, on linkers, in order; H or OH if unused. Where a SMILES comes first, the peptide text is derived from it. Side-chain parts run from the residue outwards. [ ]: non-standard residue; d: D form. The star is where a group is joined. X1 = O=C(O)CC[C@H](NC(=O)N[C@@H](CCC(=O)N[C@H](CCCN*)C(=O)O)C(=O)O)C(=O)O; Benzoyl(4-SiFtBu2) = CC(C)(C)[Si](F)(c1ccc(C(=O)*)cc1)C(C)(C)C; dCit = NC(=O)NCCC[C@@H](N)C(=O)O; Suc = O=C(CCC(=O)[*:2])[*:1]; dDap = NC[C@@H](N)C(=O)O
Measured Internalization, listed per entry.
Numbers only here, please. The scale is %.

Worked examples, 4 compounds total:
[[record]]
compound = "CC(C)(C)[Si](F)(c1ccc(C(=O)NC[C@@H](NC(=O)[C@@H](CCCNC(N)=O)NC(=O)CC[C@H](NC(=O)N[C@@H](CCC(=O)O)C(=O)O)C(=O)O)C(=O)N[C@H](CCCCNC(=O)CCC(=O)NCCC[C@@H](NC(=O)CC[C@H](NC(=O)N[C@@H](CCC(=O)O)C(=O)O)C(=O)O)C(=O)O)C(=O)O)cc1)C(C)(C)C"
unitstext = "%"
reportedmeasurement = 95.68

[[record]]
compound = "CC(C)(C)[Si](F)(c1ccc(C(=O)NC[C@@H](NC(=O)[C@H](N)CNC(=O)[C@@H](CCC(=O)O)NC(=O)[C@H](N)CCC(=O)O)C(=O)N[C@H](CCCCNC(=O)CCC(=O)NCCC[C@@H](NC(=O)CC[C@H](NC(=O)N[C@@H](CCC(=O)O)C(=O)O)C(=O)O)C(=O)O)C(=O)O)cc1)C(C)(C)C"
unitstext = "%"
reportedmeasurement = 124.49

[[record]]
compound = "CC(C)(C)[Si](F)(c1ccc(C(=O)NC[C@@H](NC(=O)[C@@H](CCCNC(N)=O)NC(=O)[C@@H](CCC(=O)O)NC(=O)[C@H](N)CCC(=O)O)C(=O)N[C@H](CCCCNC(=O)CCC(=O)NCCC[C@@H](NC(=O)CC[C@H](NC(=O)N[C@@H](CCC(=O)O)C(=O)O)C(=O)O)C(=O)O)C(=O)O)cc1)C(C)(C)C [SiFA-PSMA ligand 03 c] (H-[dE][dE][dCit][dDap](Benzoyl(4-SiFtBu2))[dK]([Suc-X1])-OH)"
unitstext = "%"
reportedmeasurement = 87.55

[[record]]
compound = "CC(C)(C)[Si](F)(c1ccc(C(=O)NC[C@@H](NC(=O)[C@@H](CCC(=O)O)NC(=O)[C@@H](CCC(=O)O)NC(=O)[C@H](N)CCC(=O)O)C(=O)N[C@H](CCCCNC(=O)CCC(=O)NCCC[C@@H](NC(=O)CC[C@H](NC(=O)N[C@@H](CCC(=O)O)C(=O)O)C(=O)O)C(=O)O)C(=O)O)cc1)C(C)(C)C [SiFA-PSMA ligand 03 b] (H-[dE][dE][dE][dDap](Benzoyl(4-SiFtBu2))[dK]([Suc-X1])-OH)"
unitstext = "%"
reportedmeasurement = 135.78


As a next step, examine the compound that follows.
Entry C[C@H](O)[C@@H](NC(=O)[C@@H](CCC(=O)O)NC(=O)[C@H](N)CCC(=O)O)C(=O)N[C@H](CNC(=O)c1ccc([Si](F)(C(C)(C)C)C(C)(C)C)cc1)C(=O)N[C@H](CCCCNC(=O)CCC(=O)NCCC[C@@H](NC(=O)CC[C@H](NC(=O)N[C@@H](CCC(=O)O)C(=O)O)C(=O)O)C(=O)O)C(=O)O [SiFA-PSMA ligand 03 h] (H-[dE][dE][dT][dDap](Benzoyl(4-SiFtBu2))[dK]([Suc-X1])-OH) , Internalization reported as 107.42
